# System: Aspergillus niger
# Procedure Details: Antifungal activity against Aspergillus niger IMI17454 strain.
# Format: functional
# Particulars: Aspergillus niger; read-out: MIC
Recorded Endpoint: log10(MIC) (log10 of the value in µM)

Compound	Reported Value
CC(C)n1cc(NC(=O)c2cc(NC=O)cn2C)cc1C(=O)Nc1cc(C(=O)NCCCN2CCCC2)n(C)c1	2.18
CC(=O)Nc1cc(C(=O)Nc2cc(C(=O)Nc3nc(C(=O)NCCCN(C)C)c(C(C)C)s3)n(C)c2)n(C)c1	1.87
CC(=O)Nc1cc(C(=O)Nc2cc(C(=O)Nc3cc(C(=O)NCCCN(C)C)n(C)c3)n(C)c2)c(C)s1	2.19
Cc1sccc1C(=O)Nc1cc(C(=O)Nc2cc(C(=O)Nc3cc(C(=O)NCCCN(C)C)n(C)c3)n(C)c2)n(C)c1	2.15
CC(=O)Nc1nc(C(=O)Nc2cc(C(=O)Nc3nc(C(=O)NCCCN(C)C)c(C(C)C)s3)n(C)c2)c(C(C)C)s1	0.63
CN(C)CCCNC(=O)c1cc(NC(=O)c2cc(NC(=O)c3cc(NC(=O)/C=C/c4ccccc4)cn3C)cn2C)cn1C	2.15
Cn1cc(NC(=O)c2cc(NC(=O)c3cc(NC=O)cn3C)cn2C)cc1C(=O)NCCCN1CCCC1	2.20
CCC(C)n1ncn(-c2ccc(N3CCN(c4ccc(OC[C@H]5CO[C@](Cn6cncn6)(c6ccc(Cl)cc6Cl)O5)cc4)CC3)cc2)c1=O (stereo not given in full) [ITRACONAZOLE]	1.25
COc1ccc(CC(=O)Nc2cc(C(=O)Nc3cc(C(=O)Nc4cc(C(=O)NCCCN(C)C)n(C)c4)n(CCC(C)C)c3)n(C)c2)cc1	1.20
CC(C)CCn1cc(NC(=O)c2cc(NC=O)cn2C)cc1C(=O)Nc1cc(C(=O)NCCCN2CCOCC2)n(C)c1	1.85
COc1cccc(C(=O)Nc2cc(C(=O)Nc3cc(C(=O)Nc4cc(C(=O)NCCCN5CCN(C)CC5)n(C)c4)n(CCC(C)C)c3)n(C)c2)c1	2.08
CC(=O)Nc1cc(C(=O)Nc2cc(C(=O)Nc3cc(C(=O)NCCCN(C)C)n(C)c3)n(C)c2)n(C)c1	2.20
CC(C)n1cc(NC(=O)c2cc(NC(=O)c3cc(NC=O)cn3C(C)C)cn2C(C)C)cc1C(=O)NCCCN(C)C	1.86
CC(C)c1sc(NC(=O)c2cc(NC=O)cn2C)nc1C(=O)Nc1cc(C(=O)NCCCN(C)C)n(C)c1	1.58
CC(C)c1sc(NC(=O)c2cc(NC(=O)c3cc(NC=O)cn3C)cn2C)nc1C(=O)NCCCN(C)C	1.88

====

# Tested on: Escherichia coli
# Procedure Details: Antibacterial activity against Escherichia coli NCTC 9001 strain
# Format: functional
Below, each entry is listed with its recorded MIC.

Structure Smiles String	Tgt	MIC
CC(=O)Nc1cc(C(=O)Nc2cc(C(=O)Nc3cc(C(=O)NCCCN(C)C)n(C)c3)c(C)s2)n(C)c1	Escherichia coli	156 µM
Cc1sc(NC(=O)c2cc(NC=O)cn2C)cc1C(=O)Nc1cc(C(=O)NCCCN(C)C)n(C)c1	Escherichia coli	159 µM
CC(=O)Nc1nc(C(=O)Nc2cc(C(=O)Nc3nc(C(=O)NCCCN(C)C)c(C(C)C)s3)n(C)c2)c(C(C)C)s1	Escherichia coli	70 µM
COc1cccc(C(=O)Nc2nc(C(=O)Nc3cc(C(=O)Nc4cc(C(=O)NCCCN(C)C)n(C)c4)n(C)c3)c(C(C)C)s2)c1	Escherichia coli	65.5 µM
CC(=O)Nc1nc(C(=O)Nc2cc(C(=O)Nc3cc(C(=O)NCCCN(C)C)n(C)c3)n(C)c2)c(C(C)C)s1	Escherichia coli	149 µM
CC(C)CCn1cc(NC(=O)c2cc(NC=O)cn2C)cc1C(=O)Nc1cc(C(=O)NCCCN2CCN(C)CC2)n(C)c1	Escherichia coli	140 µM
Cn1cc(NC(=O)c2cc(NC(=O)c3cc(NC=O)cn3C)cn2C)cc1C(=O)NCCCN1CCCC1	Escherichia coli	157 µM
